Tested on: EKVX
experiment_notes: NCI tumour cell line growth inhibition, 48 h
Calls of active or inactive are those of the source. Cut-off read from the data, not from the text of the source: active = GI50 up to about 1.1 µM and inactive = higher.

# compound, GI50
data = [
    ("c1ccc(SC(CCCCC(Sc2ccccc2)Sc2ccccc2)Sc2ccccc2)cc1", "> 100 µM (inactive)"),
    ("OC1(c2ccc3ccccc3c2)c2ccc3ccccc3c2C2=NCCN21 (centres undefined)", "> 100 µM (inactive)"),
    ("NC1=CN2c3ccccc3N(CC(=O)O)C2C=C1 (centres undefined)", "> 100 µM (inactive)"),
    ("COC1C(O)C(C)OC(OC2C(Oc3cccc4c(O)c5c(=O)oc6ccc(C)c7c(=O)oc(c34)c5c67)OC(C)C(O)C2O)C1O (centres undefined)", "1.34 µM (inactive)"),
    ("O=C(NC(=O)c1cn(CCN2CCNCC2)c(=O)[nH]c1=O)OCc1ccccc1", "> 100 µM (inactive)"),
    ("COP(=O)(Cc1ccc(/C=C/C#N)o1)OC", "> 100 µM (inactive)"),
    ("C/C1=N\\[N-]C(=O)c2ccccc2C(=O)N/N=C(\\C)c2cccc1n2.O=[N+]([O-])[O-].[Zn+2]", "> 100 µM (inactive)"),
    ("O=C1CC(Cc2n[nH]c3c2CCCC3)CC(=O)N1", "> 100 µM (inactive)"),
    ("Cc1ccc([N+](=O)[O-])cc1S(=O)(=O)Nc1ccc(C2=NN(S(=O)(=O)c3cc([N+](=O)[O-])ccc3C)C(c3ccccc3O)C2)cc1 (centres undefined)", "57.7 µM (inactive)"),
]
